Assay: Metabolic stability in human liver microsomes assessed as parent compound remaining measured after 60 mins
Type: ADME, Microsome
Conditions: read-out: Stability
measurement-label: remaining at 1 h

molecule: C[C@H]1Nc2ccc3ncc(n3n2)C(=O)NC2(CC2)COc2ccc(F)cc21
measurement-label: remaining at 1 h
observed-result: 28.8%

Now look at this one.
Problem: Returns the measured remaining at 1 h for the input molecule. Input: C[C@H]1CNC(=O)c2cnn3ccc(nc23)N[C@H](C)c2cc(F)ccc2O1 [REPOTRECTINIB]
Solution: 46.1%

###

Biological target: ALK tyrosine kinase receptor (Homo sapiens, UniProt Q9UM73, G1202R)
Sequence (Q9UM73 19-1620 G1202R limits assumed): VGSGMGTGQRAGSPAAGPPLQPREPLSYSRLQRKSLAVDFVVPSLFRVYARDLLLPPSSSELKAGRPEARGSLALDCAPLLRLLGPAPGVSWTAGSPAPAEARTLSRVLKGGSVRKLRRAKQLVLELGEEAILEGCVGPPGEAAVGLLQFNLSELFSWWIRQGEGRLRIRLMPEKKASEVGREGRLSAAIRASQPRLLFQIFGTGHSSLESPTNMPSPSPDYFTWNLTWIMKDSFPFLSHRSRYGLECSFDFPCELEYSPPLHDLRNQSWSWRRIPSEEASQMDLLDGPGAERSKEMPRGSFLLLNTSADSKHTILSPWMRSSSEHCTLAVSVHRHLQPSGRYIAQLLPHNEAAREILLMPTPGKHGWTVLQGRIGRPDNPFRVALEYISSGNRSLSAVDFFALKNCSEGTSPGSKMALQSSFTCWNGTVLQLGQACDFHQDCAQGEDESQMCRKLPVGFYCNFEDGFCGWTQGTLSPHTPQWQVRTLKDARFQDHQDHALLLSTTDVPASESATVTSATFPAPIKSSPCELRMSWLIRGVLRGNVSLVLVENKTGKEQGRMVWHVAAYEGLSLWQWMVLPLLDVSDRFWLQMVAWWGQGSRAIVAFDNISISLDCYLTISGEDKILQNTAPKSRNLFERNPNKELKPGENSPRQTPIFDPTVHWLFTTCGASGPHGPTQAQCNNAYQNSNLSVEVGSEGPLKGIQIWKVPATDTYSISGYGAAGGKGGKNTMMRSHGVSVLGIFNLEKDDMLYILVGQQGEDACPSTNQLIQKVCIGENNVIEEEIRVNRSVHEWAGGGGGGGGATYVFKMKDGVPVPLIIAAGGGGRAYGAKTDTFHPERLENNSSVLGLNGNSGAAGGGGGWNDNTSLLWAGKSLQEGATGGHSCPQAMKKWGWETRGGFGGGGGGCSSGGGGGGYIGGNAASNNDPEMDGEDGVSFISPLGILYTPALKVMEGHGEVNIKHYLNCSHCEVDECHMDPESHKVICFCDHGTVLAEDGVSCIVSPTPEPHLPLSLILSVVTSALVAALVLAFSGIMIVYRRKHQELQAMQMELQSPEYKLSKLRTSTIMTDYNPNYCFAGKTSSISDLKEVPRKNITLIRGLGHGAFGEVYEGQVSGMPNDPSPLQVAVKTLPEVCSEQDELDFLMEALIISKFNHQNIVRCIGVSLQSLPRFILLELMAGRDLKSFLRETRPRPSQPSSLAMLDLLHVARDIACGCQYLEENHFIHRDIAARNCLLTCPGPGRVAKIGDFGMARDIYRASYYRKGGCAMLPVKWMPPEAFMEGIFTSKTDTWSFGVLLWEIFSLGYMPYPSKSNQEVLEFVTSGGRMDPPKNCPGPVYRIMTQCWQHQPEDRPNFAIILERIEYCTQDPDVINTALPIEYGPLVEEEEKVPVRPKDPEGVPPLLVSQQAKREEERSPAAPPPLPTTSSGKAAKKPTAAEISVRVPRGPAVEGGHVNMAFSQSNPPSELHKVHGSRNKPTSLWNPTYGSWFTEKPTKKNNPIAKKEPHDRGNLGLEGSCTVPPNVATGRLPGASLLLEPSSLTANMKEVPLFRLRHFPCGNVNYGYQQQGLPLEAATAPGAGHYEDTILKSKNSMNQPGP
Experiment: Inhibition of ALK G1202R mutant (unknown origin)
measurement-label: IC50 (nM)
Record the value in nM, omitting the unit from your answer.

record-smiles: CC1(C)COc2ccc(F)cc2CN(C2CC2)c2ccc3ncc(n3n2)C(=O)N1
measurement-label: IC50
value-unit: nM
observed-result: 82
//
record-smiles: C[C@H]1Nc2ccc3ncc(n3n2)C(=O)NC2(CC2)COc2cc(F)ccc21
measurement-label: IC50
value-unit: nM
observed-result: 993

Problem: Quick one: IC50 of `C[C@H]1Nc2ccc3ncc(n3n2)C(=O)NCCOc2ccc(F)cc21` ?
Solution: 28

Problem: Also, `C[C@@H]1Nc2ccc3ncc(n3n2)C(=O)NC2(CC2)COc2ccc(F)cc21` please.
Solution: 1000

Problem: // same read-out, input: `CCC[C@H]1Nc2ccc3ncc(n3n2)C(=O)NC2(CC2)COc2ccc(F)cc21`
Solution: 1000

Problem: Same lookup for `Cc1cc2ncc3n2nc1N[C@H](C)c1cc(F)ccc1OCC1(CC1)NC3=O` , please.
Solution: 47

Problem: Subsequent entry: `C[C@H]1Nc2ccc3ncc(n3n2)C(=O)NC2(CC2)COc2ccccc21`
Solution: 98
